This collection of values is drawn from patent US12077503B2.

test system: barnyardgrass (Echinochloa crus-galli); assay: Test G Post-Emergence Protocol; type: in vivo; conditions: Echinochloa crus-galli, post-emergence, 312 h, 250 g ai/ha, evaluated after 13 days, 100=total damage to plant, 0=no damage to plant, read-out: Barnyardgrass damage rating
Each entry below carries its reported pest or weed control at 250 g/ha.
measurement.type: pest or weed control at 250 g/ha (%)

- CN1C[C@H](c2cccc(C(F)(F)F)c2)[C@@H](C(=O)Nc2cnccc2[N+](=O)[O-])C1=O (racemic) [Compound 1731]: 0
- CCCOc1cc(C2CN(C)C(=O)C2C(=O)Nc2cccc(F)c2F)cc(C(F)(F)F)c1 (stereo not drawn) [Compound 1725]: 70
- CN1C[C@H](c2ccc(C(F)(F)F)cc2)[C@@H](C(=O)Nc2ccc(C(F)(F)F)cn2)C1=O (racemic) [Compound 1672]: 0
- COC(=O)c1cc([C@H]2CN(C)C(=O)[C@@H]2C(=O)Nc2ccccc2F)ccc1F (racemic) [Compound 1682]: 0
- COc1cc(C)cc([C@@H]2CN(C)C(=O)[C@H]2C(=O)Nc2cccc(F)c2C)c1 (racemic) [Compound 1791]: 80
- CN1C[C@@H](c2cccc(C(F)(F)F)c2)[C@H](C(=O)Nc2cccc(F)n2)C1=O [Compound 1817]: 0
- CN1C[C@H](c2cc(C(F)(F)F)cc(C(F)(F)F)c2)[C@@H](C(=O)Nc2ccccc2S(C)(=O)=O)C1=O (racemic) [Compound 1794]: 70
- CN1CCCC(NC(=O)[C@H]2C(=O)N(C)C[C@@H]2c2ccc(C(F)(F)F)cc2)C1=O (mixture of isomers) [Compound 1674]: 0
- CSc1ccncc1NC(=O)[C@H]1C(=O)N(C)C[C@@H]1c1ccc(C(F)(F)F)cc1 (racemic) [Compound 1749]: 0
- CN1C[C@H](c2cccc(C(F)(F)F)c2)[C@@H](C(=O)Nc2cnccc2F)C1=O (racemic) [Compound 1745]: 80
- CN1C[C@@H](c2ccc(C(F)(F)F)cc2)[C@H](C(=O)Nc2ccncc2F)C1=O (racemic) [Compound 1652]: 30
- CN1C[C@H](c2ccc(C(F)(F)F)cc2)[C@@H](C(=O)Nc2cnccc2S(C)(=O)=O)C1=O (racemic) [Compound 1746]: 40
- COc1cc(F)cc(C2CN(C)C(=O)C2C(=O)Nc2cccc(F)c2F)c1 (stereo not drawn) [Compound 1699]: 90
- CN1C[C@H](c2cc(F)cc(F)c2)[C@@H](C(=O)Nc2cnccc2C(F)(F)F)C1=O (racemic) [Compound 1741]: 70
- COc1c(Cl)ccc([C@H]2CN(C)C(=O)[C@@H]2C(=O)Nc2cccc(F)c2F)c1F [Compound 1773]: 80

* * *

system: giant foxtail (Setaria faberii); assay: Test A postemergence; format: in vivo; conditions: Setaria faberi, post-emergence, 240 h, 125 g ai/ha, postemergence, visual injury rating after approximately 10 d; read-out: Foxtail, Giant plant response rating (0 to 100 scale, 0 no effect, 100 complete control)
Decision: pest or weed control at 125 g/ha compared against 30%; not below it gives 1.0, below it gives 0.0.

• O=C1NC[C@H](c2cccc(C(F)(F)F)c2)[C@H]1C(=O)Nc1cccc2c1OC(F)(F)O2 = 1.0
• CN1C[C@H](c2cccc(OC(F)(F)C(F)F)c2)[C@@H](C(=O)Nc2ccccc2S(C)(=O)=O)C1=O = 1.0
• CN1C[C@H](c2cccc(OC(F)(F)C(F)F)c2)[C@@H](C(=O)Nc2ccccc2[S+](C)[O-])C1=O (stereo partly shown) = 0.0
• COc1c(F)ccc([C@H]2CNC(=O)[C@@H]2C(=O)Nc2ccc(F)cc2F)c1Cl = 1.0
• CN1C[C@H](c2cc(F)cc(F)c2)[C@@H](C(=O)Nc2ccc(C(F)(F)F)nc2)C1=O = 0.0
• O=C(Nc1cccc(F)c1F)[C@H]1C(=O)N(O)CC[C@@H]1c1ccc(F)cc1 = 0.0
